Values were extracted from ChEMBL document CHEMBL4043103.

- procedure-details: Non noncompetitive inhibition of soybean lipoxygenase preincubated for 5 mins followed by substrate addition measured after 20 mins by Lineweaver-Burk plot analysis
- Parameters: species or system Glycine max
measurement-label: Ki (nM)

[
  {
    "smi": "NCc1c(-c2ccccc2)c(C(=O)O)c2ccccn12",
    "recorded-value": 720
  }
]

###

- Species on record: Rattus norvegicus
- procedure-details: animal or person
- experimental-context: Wistar, po, read-out: INH
In this section we review reported inhibition in vivo at 10 mg/kg values for a set of molecules.
measurement-label: inhibition in vivo at 10 mg/kg (%)

[
  {
    "smi": "NCc1c(-c2ccc(C(F)(F)F)cc2)c(C(=O)O)c2ccccn12",
    "unit-abbreviation": "%",
    "recorded-value": 67.7
  },
  {
    "smi": "NCc1c(-c2ccc(F)cc2)c(C(=O)O)c2ccccn12",
    "unit-abbreviation": "%",
    "recorded-value": 86.4
  },
  {
    "smi": "NCc1c(-c2ccc3c(c2)OCO3)c(C(=O)O)c2ccccn12",
    "unit-abbreviation": "%",
    "recorded-value": 78.1
  },
  {
    "smi": "COc1cc(-c2c(C(=O)O)c3ccccn3c2CN)ccc1O",
    "unit-abbreviation": "%",
    "recorded-value": 59.4
  },
  {
    "smi": "NCc1c(-c2ccccc2)c(C(=O)O)c2ccccn12",
    "unit-abbreviation": "%",
    "recorded-value": 88.6
  },
  {
    "smi": "Cc1c(C(=O)O)c2ccccn2c1CN",
    "unit-abbreviation": "%",
    "recorded-value": 38.5
  },
  {
    "smi": "CCCCc1c(C(=O)O)c2ccccn2c1CN",
    "unit-abbreviation": "%",
    "recorded-value": 23.9
  },
  {
    "smi": "CCc1c(C(=O)O)c2ccccn2c1CN",
    "unit-abbreviation": "%",
    "recorded-value": 34.3
  }
]

###

- procedure-details: Inhibition of soybean lipoxygenase preincubated for 5 mins followed by linoleic acid substrate addition measured after 20 mins by spectrophotometric method
- Parameters: species or system Glycine max

[
  {
    "compound": "CC(c1cc2ccccc2s1)N(O)C(N)=O (stereo not drawn)",
    "IC50 (µM)": 3.43
  },
  {
    "compound": "CC1(C)Cc2c(-c3ccccc3)c(-c3ccc(Cl)cc3)c(CC(=O)O)n2C1",
    "IC50 (µM)": 0.21
  },
  {
    "compound": "NCc1c(-c2ccccc2)c(C(=O)O)c2ccccn12",
    "IC50 (µM)": 13.1
  }
]

###

- Species on record: Rattus norvegicus
- procedure-details: animal or person
- experimental-context: Wistar, po, read-out: INH

[
  {
    "smi": "Cc1c(C(=O)O)c2ccccn2c1CN",
    "unit-abbreviation": "%",
    "inhibition in vivo at 10 mg/kg": 23.1
  },
  {
    "smi": "NCc1c(-c2ccc(C(F)(F)F)cc2)c(C(=O)O)c2ccccn12",
    "unit-abbreviation": "%",
    "inhibition in vivo at 10 mg/kg": 40
  },
  {
    "smi": "CCc1c(C(=O)O)c2ccccn2c1CN",
    "unit-abbreviation": "%",
    "inhibition in vivo at 10 mg/kg": 20.2
  },
  {
    "smi": "NCc1c(-c2ccc(F)cc2)c(C(=O)O)c2ccccn12",
    "unit-abbreviation": "%",
    "inhibition in vivo at 10 mg/kg": 61.5
  }
]
